- Tested on: plantain
- experimental-details: Greenhouse pot test, postemergent spray, visual control rating converted to percent control
- Assay type: in vivo
- experimental-context: Test 4, 24 HAT; scale 1=no control, 9=death of plant
assay-endpoint: Control (1-9) Plantain

Some solved entries appear below for comparison.
O=C(O)c1c(Cl)ccc2cc(Cl)cnc12 [Quinclorac @ 0.375 lbs/A]
1
O=C(O)c1c(Cl)ccc2cc(Cl)cnc12 [Quinclorac @ 0.18 lbs/A]
1
Cc1nn(-c2cc(CC(Cl)C(=O)O)c(Cl)cc2F)c(=O)n1C(F)F (stereo not drawn) [Carfentrazone @ 0.01 lbs/A]
3
O=C(O)c1c(Cl)ccc2cc(Cl)cnc12 [Quinclorac @ 0.75 lbs/A]
1
Cc1cc(Cl)ccc1OCC(=O)OCCCCCC(C)C
2

Attention now shifts to the item below.
Name the recorded Control (1-9) Plantain for Cc1nn(-c2cc(CC(Cl)C(=O)O)c(Cl)cc2F)c(=O)n1C(F)F (stereo not drawn) [Carfentrazone @ 0.02 lbs/A] . 3

---

- Tested on: crabgrass
- experimental-details: Greenhouse pot test, postemergent spray, visual control rating converted to percent control
- Assay type: in vivo
- experimental-context: Test 3, 21 DAT
assay-endpoint: % Control Crabgrass (%)
Numbers only, in %.

Cc1nn(-c2cc(NS(C)(=O)=O)c(Cl)cc2Cl)c(=O)n1C(F)F [Sulfentrazone @ 0.02 lbs/A]
33.3
O=C(O)c1c(Cl)ccc2cc(Cl)cnc12 [Quinclorac @ 0.75 lbs/A]
77.8
Cc1cc(Cl)ccc1OCC(=O)OCCCCCC(C)C
44.4
O=C(O)c1c(Cl)ccc2cc(Cl)cnc12 [Quinclorac @ 0.18 lbs/A]
33.3

For each of the items listed, what is its % Control Crabgrass?
1. Cc1nn(-c2cc(NS(C)(=O)=O)c(Cl)cc2Cl)c(=O)n1C(F)F [Sulfentrazone @ 0.03 lbs/A]
2. O=C(O)c1c(Cl)ccc2cc(Cl)cnc12 [Quinclorac @ 0.375 lbs/A]

[44.4, 66.7]

---

Provide the reported Control (1-9) Clover of each item.
- Test system: white clover
- experimental-details: Greenhouse pot test, postemergent spray, visual control rating converted to percent control
- Assay type: in vivo
- experimental-context: Test 3, 21 DAT; scale 1=no control, 9=death of plant
- Excerpt: Pots of crabgrass, dandelion, white clover, and plantain grown in greenhouse soiless growth media were sprayed with a greenhouse pot sprayer at 43.46 gallons of spray solution/acre and allowed to stand in the greenhouse. […]

O=C(O)c1c(Cl)ccc2cc(Cl)cnc12 [Quinclorac @ 0.375 lbs/A]
8
O=C(O)c1c(Cl)ccc2cc(Cl)cnc12 [Quinclorac @ 0.18 lbs/A]
6
Cc1nn(-c2cc(NS(C)(=O)=O)c(Cl)cc2Cl)c(=O)n1C(F)F [Sulfentrazone @ 0.03 lbs/A]
5
Cc1nn(-c2cc(NS(C)(=O)=O)c(Cl)cc2Cl)c(=O)n1C(F)F [Sulfentrazone @ 0.02 lbs/A]
4
O=C(O)c1c(Cl)ccc2cc(Cl)cnc12 [Quinclorac @ 0.75 lbs/A]
8

Attention now shifts to the item below.
Name the recorded Control (1-9) Clover for Cc1cc(Cl)ccc1OCC(=O)OCCCCCC(C)C . 9

---

- Test system: dandelion
- experimental-details: Greenhouse pot test, postemergent spray, visual control rating converted to percent control
- Format: in vivo
- experimental-context: Test 3, 72 HAT
assay-endpoint: % Control Dandelion (%)
Numbers only, in %.

Some solved entries appear below for comparison.
Cc1cc(Cl)ccc1OCC(=O)OCCCCCC(C)C
55.6
O=C(O)c1c(Cl)ccc2cc(Cl)cnc12 [Quinclorac @ 0.75 lbs/A]
22.2
Cc1nn(-c2cc(NS(C)(=O)=O)c(Cl)cc2Cl)c(=O)n1C(F)F [Sulfentrazone @ 0.02 lbs/A]
33.3
O=C(O)c1c(Cl)ccc2cc(Cl)cnc12 [Quinclorac @ 0.18 lbs/A]
22.2
Cc1nn(-c2cc(NS(C)(=O)=O)c(Cl)cc2Cl)c(=O)n1C(F)F [Sulfentrazone @ 0.03 lbs/A]
55.6

Attention now shifts to the item below.
Name the recorded % Control Dandelion for O=C(O)c1c(Cl)ccc2cc(Cl)cnc12 [Quinclorac @ 0.375 lbs/A] . 22.2
